test: Pharmacokinetic study in rats (intragastrical administration); conditions: male, SD, rat, plasma, po, 2 mg/kg
MEASUREMENT KIND: AUC(0-t) (ng·h/mL)

SMILES ENTRY	MEASUREMENT KIND	ASSAY RESULT
C#Cc1ccc(S(=O)(=O)Nc2noc3cc(Cn4cccn4)cc(OC)c23)c(OC)c1	AUC(0-t)	53700

---

assay: Pharmacokinetic study in rats (intragastrical administration); conditions: male, SD, rat, plasma, po, 3 mg/kg
Respond with true for Cmax values of 2000 ng/mL and above, false for values below.

SMILES ENTRY	DISCRETE LABEL
COc1cc(C#CC2CC(F)(F)C2)cc(OC)c1S(=O)(=O)Nc1noc2cc(Cn3cccn3)cc(OC)c12	true
COc1cc(C#CC2CC2)ccc1S(=O)(=O)Nc1noc2cc(Cn3cccn3)cc(OC)c12	true
CC#Cc1ccc(S(=O)(=O)Nc2noc3cc(Cn4cccn4)cc(OC)c23)c(OC)c1	true
COc1cc(C#CC2COC2)cc(OC)c1S(=O)(=O)Nc1noc2cc(Cn3cccn3)cc(OC)c12	false
COc1cc(N2CCC2)ccc1S(=O)(=O)Nc1noc2cc(Cn3cccn3)cc(OC)c12	false

---

# maps each entry to its half-life
experiment: Pharmacokinetic study in rats (intragastrical administration); settings: male, SD, rat, plasma, po, 3 mg/kg

SMILES ENTRY	UNIT OF MEASURE	half-life
CC#Cc1ccc(S(=O)(=O)Nc2noc3cc(Cn4cccn4)cc(OC)c23)c(OC)c1	h	14.4
COc1cc(C#CC2CC2)ccc1S(=O)(=O)Nc1noc2cc(Cn3cccn3)cc(OC)c12	h	24.6
COc1cc(C#CC2CC(F)(F)C2)cc(OC)c1S(=O)(=O)Nc1noc2cc(Cn3cccn3)cc(OC)c12	h	7.85
COc1cc(C#CC2COC2)cc(OC)c1S(=O)(=O)Nc1noc2cc(Cn3cccn3)cc(OC)c12	h	6.62
COc1cc(N2CCC2)ccc1S(=O)(=O)Nc1noc2cc(Cn3cccn3)cc(OC)c12	h	3.17

---

# maps each entry to its Tmax
test: Pharmacokinetic study in rats (intragastrical administration); details: male, SD, rat, plasma, po, 3 mg/kg

SMILES ENTRY	Tmax, h
COc1cc(C#CC2COC2)cc(OC)c1S(=O)(=O)Nc1noc2cc(Cn3cccn3)cc(OC)c12	3.33
COc1cc(C#CC2CC(F)(F)C2)cc(OC)c1S(=O)(=O)Nc1noc2cc(Cn3cccn3)cc(OC)c12	3.33
COc1cc(C#CC2CC2)ccc1S(=O)(=O)Nc1noc2cc(Cn3cccn3)cc(OC)c12	2
COc1cc(N2CCC2)ccc1S(=O)(=O)Nc1noc2cc(Cn3cccn3)cc(OC)c12	2.67
CC#Cc1ccc(S(=O)(=O)Nc2noc3cc(Cn4cccn4)cc(OC)c23)c(OC)c1	2.67

---

assay: Pharmacokinetic study in rats (intragastrical administration); settings: male, SD, rat, plasma, po, 2 mg/kg
MEASUREMENT KIND: Tmax (h)

MOLECULE	ASSAY RESULT
C#Cc1ccc(S(=O)(=O)Nc2noc3cc(Cn4cccn4)cc(OC)c23)c(OC)c1 [Compound 11]	1.33
